Ref: paper PMC9482650

- TARGET_OR_TEST_SYSTEM: T1, DFNB31_2, Q9P202
- T1 sequence (Q9P202 274-371, limits assumed, looked up): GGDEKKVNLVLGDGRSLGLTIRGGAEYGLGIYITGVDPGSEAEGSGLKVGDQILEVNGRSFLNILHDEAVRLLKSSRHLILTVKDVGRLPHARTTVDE
- ASSAY_METHOD_TEXT: holdup assay
- Design: key: below the threshold = too weak to quantify, mostly under pKd 3.1 to 4
- RECORDED_CONDITIONS: plain residues with an end cap or a label only (N-terminal biotin on a linker: ado-ado)
MEASURED_PROPERTY: pKd

| BINDER | READOUT_VALUE |
| --- | --- |
| RHGSCVETSL [TMEM151B, Q8IW70] | below the threshold |
| QSLNRMEYIV [JAG1, P78504] | below the threshold |
| QSARLWETSI [ADAM22, Q9P0K1] | 3.57 |
| HLRARKSEWV [GJD4, Q96KN9] | below the threshold |
